ASSAY_SYSTEM: ternary complex CRBN/PROTAC/METTL3–14 (Homo sapiens, UniProt Q86U44+Q96SW2)
Construct: methyltransferase domains (MTD) of METTL3 (residues 354–580); His6 (N, cleaved yes); made in house; host or cells: METTL3-MTD/METTL14-MTD: baculovirus/Sf9; CRBN-TBD: E. coli Rosetta (DE3), co-expressed with BirA
Sequence (Q86U44 354-580): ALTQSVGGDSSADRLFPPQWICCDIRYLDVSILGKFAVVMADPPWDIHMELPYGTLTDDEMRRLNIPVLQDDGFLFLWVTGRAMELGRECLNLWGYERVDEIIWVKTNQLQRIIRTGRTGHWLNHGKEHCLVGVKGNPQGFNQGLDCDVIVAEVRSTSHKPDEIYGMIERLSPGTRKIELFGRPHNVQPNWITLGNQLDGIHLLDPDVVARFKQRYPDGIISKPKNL
Sequence (Q9HCE5 107-395 partner limits assumed): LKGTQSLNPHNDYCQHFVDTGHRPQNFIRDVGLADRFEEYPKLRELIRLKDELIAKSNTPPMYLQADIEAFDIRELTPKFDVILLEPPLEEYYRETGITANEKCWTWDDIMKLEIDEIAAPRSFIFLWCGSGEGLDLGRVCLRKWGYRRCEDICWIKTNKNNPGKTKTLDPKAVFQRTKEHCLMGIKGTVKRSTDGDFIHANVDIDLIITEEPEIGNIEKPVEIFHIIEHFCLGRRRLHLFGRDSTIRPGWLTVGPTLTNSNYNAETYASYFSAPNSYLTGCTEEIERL
Sequence (Q96SW2 318-442): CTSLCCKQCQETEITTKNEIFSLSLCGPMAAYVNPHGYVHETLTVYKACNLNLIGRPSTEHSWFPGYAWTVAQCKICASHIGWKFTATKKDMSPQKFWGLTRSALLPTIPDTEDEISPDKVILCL
ASSAY: FRET-based ternary complex formation assay (TCFA)
Assay type: binding
EXPERIMENTAL_CONDITIONS: PROTAC concentration at the maximum of the signal in the TCFA
Listed here: items and their measured ECmax (nM) ± SD.
A number alone suffices; assume nM.

Below, 2 compounds whose answers are already recorded.
COMPOUND: CC1(C)CCN(Cc2cc(F)c(N3CC(=O)NC4(CCN(c5cc(NCCN6CCN(C(=O)CCCNc7cccc8c7C(=O)N(C7CCC(=O)NC7=O)C8=O)CC6)ncn5)CC4)C3)cc2F)CC1 (stereo not drawn)
ASSAY_SYSTEM: ternary complex CRBN/PROTAC/METTL3–14 (Homo sapiens, UniProt Q86U44+Q96SW2)
ECmax (nM) ± SD: 80

COMPOUND: CC1(C)CCN(Cc2cc(F)c(N3CC(=O)NC4(CCN(c5cc(NCC6CCN(C(=O)CCCCCCCNc7cccc8c7C(=O)N(C7CCC(=O)NC7=O)C8=O)CC6)ncn5)CC4)C3)cc2F)CC1 (stereo not drawn)
ASSAY_SYSTEM: ternary complex CRBN/PROTAC/METTL3–14 (Homo sapiens, UniProt Q86U44+Q96SW2)
ECmax (nM) ± SD: 1200

In the following, a different compound is considered.
Entry CC1(C)CCN(Cc2cc(F)c(N3CC(=O)NC4(CCN(c5cc(NCC6CCN(C(=O)CCCNc7ccc8c(c7)C(=O)N(C7CCC(=O)NC7=O)C8=O)CC6)ncn5)CC4)C3)cc2F)CC1 (stereo not drawn) : reported ECmax (nM) ± SD = ? 160

* * *

ASSAY: Cell viability assay (CellTiter-Glo) on MOLM-13
Assay type: cell-based
EXPERIMENTAL_CONDITIONS: human, MOLM-13 cells, 0.6 µM, average of two biological replicates
MEASURED_PROPERTY: viability at 72 h, 0.6 µM
Form entry: enter the amount, then its unit.

COMPOUND: CC1(C)CCN(Cc2cc(F)c(N3CC(=O)NC4(CCN(c5cc(NCc6cccc(CNC(=O)CCCCCNc7cccc8c7C(=O)N(C7CCC(=O)NC7=O)C8=O)c6)ncn5)CC4)C3)cc2F)CC1 (stereo not drawn) [Compound 15]
viability at 72 h, 0.6 µM: 91.2%
--
COMPOUND: CC1(C)CCN(Cc2cc(F)c(N3CC(=O)NC4(CCN(c5cc(NCc6cn(CCCCCCCCC(=O)Nc7cccc8c7CN(C7CCC(=O)NC7=O)C8=O)nn6)ncn5)CC4)C3)cc2F)CC1 (stereo not drawn) [Compound 26]
viability at 72 h, 0.6 µM: 97.9%
--
COMPOUND: CC1(C)CCN(Cc2cc(F)c(N3CC(=O)NC4(CCN(c5cc(NCC6CCN(C(=O)CCCNc7cccc8c7C(=O)N(C7CCC(=O)NC7=O)C8=O)CC6)ncn5)CC4)C3)cc2F)CC1 (stereo not drawn) [Compound 22]
viability at 72 h, 0.6 µM: 95.8%

If you can, please state the reported viability at 72 h, 0.6 µM value of CC1(C)CCN(Cc2cc(F)c(N3CC(=O)NC4(CCN(c5cc(NCCN6CCN(c7cnc(N8CCN(C(=O)CCCNc9cccc%10c9C(=O)N(C9CCC(=O)NC9=O)C%10=O)CC8)nc7)CC6)ncn5)CC4)C3)cc2F)CC1 (stereo not drawn) [Compound 33] . 92.1%

So what's the measured viability at 72 h, 0.6 µM for this one? CC1(C)CCN(Cc2cc(F)c(N3CC(=O)NC4(CCN(c5cc(NCc6cccc(CNC(=O)CCCNc7cccc8c7C(=O)N(C7CCC(=O)NC7=O)C8=O)c6)ncn5)CC4)C3)cc2F)CC1 (stereo not drawn) [Compound 14] 95.5%
